System: HOP-62 NSCLC
Assay: NCI-60 one-dose screen, 48 h
Details: 10 µM unless noted
About 83,000 compounds went through this panel and 20% of them were active in at least one assay; those are over-represented in the sample as a whole. Activity calls are given as the source filed them. How the source made its calls: active means growth percent below 10; inactive means the rest.
Outcome codes: active, inactive

query_smiles=O=C(O[C@@H]1Cc2c(O)cc(O)cc2O[C@@H]1c1cc(O)c(O)c(O)c1)c1cc(O)c2c(c1)OCO2 category_label=inactive
query_smiles=Cc1cccc2c1NC(=O)[C@@]21[C@H](C(=O)c2ccccc2)[C@]2(C(=O)Nc3ccccc32)[C@H]2CCCN21 category_label=active
query_smiles=Cc1ccc(-c2nn(Cc3cn(-c4cc(C)nc5ccccc45)nn3)c3ncnc(N)c23)cc1 category_label=inactive
query_smiles=CCN1CCN(C(=O)[C@@]2(C)CC[C@]3(C)CC[C@]4(C)C(=CC(=O)[C@@H]5[C@@]6(C)CC[C@H](OCCC#N)C(C)(C)[C@@H]6CC[C@]54C)[C@@H]3C2)CC1 category_label=inactive
query_smiles=NCCNc1nc(-c2ccccc2)nc2nc(-c3ccccc3)oc12 category_label=inactive
query_smiles=CC1(C)CC[C@]2(C(=O)NCCNCCN)CC[C@]3(C)C(=CC[C@@H]4[C@@]5(C)CCC(=O)C(C)(C)[C@@H]5CC[C@]43C)[C@@H]2C1 category_label=inactive
query_smiles=N#Cc1cnc2cc(OC[C@@H](O)CO)c(NC(=O)CC3CSSC3)cc2c1Nc1ccc(OCc2cccc(F)c2)c(Cl)c1 category_label=active

Values were extracted from PubChem BioAssay (NCI).
